Biological target: T1, human CEACAM5 (human, UniProt P06731 35-685)
T1 construct: whole, on cells; Target on MKN-45 (DSMZ ACC409) and LS180 (ATCC CL-187) cells; also called carcinoembryonic antigen-related cell adhesion molecule 5; CD66e
T1 sequence (looked up): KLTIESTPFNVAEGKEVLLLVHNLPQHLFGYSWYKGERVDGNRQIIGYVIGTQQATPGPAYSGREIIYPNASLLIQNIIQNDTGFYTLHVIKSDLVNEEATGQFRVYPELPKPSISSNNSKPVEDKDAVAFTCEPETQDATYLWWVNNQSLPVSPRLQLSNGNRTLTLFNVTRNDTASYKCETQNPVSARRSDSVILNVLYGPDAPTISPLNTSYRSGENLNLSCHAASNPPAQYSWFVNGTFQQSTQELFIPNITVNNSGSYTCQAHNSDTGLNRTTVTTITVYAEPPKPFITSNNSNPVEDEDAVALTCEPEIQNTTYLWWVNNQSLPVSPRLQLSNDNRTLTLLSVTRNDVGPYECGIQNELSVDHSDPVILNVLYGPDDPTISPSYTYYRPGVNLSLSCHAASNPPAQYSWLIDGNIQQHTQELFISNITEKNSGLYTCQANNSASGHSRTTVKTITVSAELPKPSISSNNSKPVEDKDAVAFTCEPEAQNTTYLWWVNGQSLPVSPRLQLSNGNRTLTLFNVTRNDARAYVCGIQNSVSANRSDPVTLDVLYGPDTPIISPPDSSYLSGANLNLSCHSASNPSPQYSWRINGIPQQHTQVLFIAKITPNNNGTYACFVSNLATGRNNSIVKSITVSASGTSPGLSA
Assay: FACS on MKN-45 cells expressing human CEACAM5
Catalogue of EC50 values
Unit µg/mL implied. Number only.

1) P1AI5028 (antibody, human IgG1, name in Kabat numbering, V domains shown) VH: EVQLVESGGGLVQPGGSLRLSCAASGFNIKDTYMHWVRQAPGKGLEWVGRIDPANGNSKYADSVKGRFTISADTSKNTAYLQMNSLRAEDTAVYYCAPFGYYVSDYAMAYWGQGTTVTVSS VL: EIVLTQSPATLSLSPGERATLSCRAGESVDIFGVGFLHWYQQKPGQAPRLLIYRGSNRATGIPARFSGSGSGTDFTLTISSLEPEDFAVYYCGQTHEDPYTFGQGTKLEIK: 7.51
2) P1AI5031 (antibody, human IgG1, V domains shown, also called 24_A55M) VH: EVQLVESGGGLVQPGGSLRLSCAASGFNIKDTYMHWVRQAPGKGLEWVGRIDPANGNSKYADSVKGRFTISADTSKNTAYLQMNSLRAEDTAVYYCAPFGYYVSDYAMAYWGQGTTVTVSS VL: EIVLTQSPATLSLSPGERATLSCRAGESVDIFGVGFLHWYQQKPGQAPRLLIYRGSNRMTGIPARFSGSGSGTDFTLTISSLEPEDFAVYYCQQTNEDPYTFGQGTKLEIK: 2.42
3) P1AI5017 (antibody, human IgG1, V domains shown) VH: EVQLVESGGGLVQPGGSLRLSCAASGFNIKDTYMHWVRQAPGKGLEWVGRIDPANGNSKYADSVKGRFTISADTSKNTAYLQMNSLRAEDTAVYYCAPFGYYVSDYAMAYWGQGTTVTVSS VL: EIVLTQSPATLSLSPGERATLSCRAGESVDIFGVGFLHWYQQKPGQAPRLLIYRGSNRATGIPARFSGSGSGTDFTLTISSLEPEDFAVYYCQQTSEYPYTFGQGTKLEIK: 0.762
4) P1AI5025 (antibody, human IgG1, name in Kabat numbering, V domains shown) VH: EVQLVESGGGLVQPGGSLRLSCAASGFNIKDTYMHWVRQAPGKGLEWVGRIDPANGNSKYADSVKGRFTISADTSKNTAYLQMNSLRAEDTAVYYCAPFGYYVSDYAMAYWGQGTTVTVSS VL: EIVLTQSPATLSLSPGERATLSCRAGESVDIFGVGFLHWYQQKPGQAPRLLIYRGSNRATGIPARFSGSGSGTDFTLTISSLEPEDFAVYYCGQTSEDPYTFGQGTKLEIK: 2.44

# next binder below
Request: Give recorded EC50. P1AI5024 (antibody, human IgG1, name in Kabat numbering, V domains shown) VH: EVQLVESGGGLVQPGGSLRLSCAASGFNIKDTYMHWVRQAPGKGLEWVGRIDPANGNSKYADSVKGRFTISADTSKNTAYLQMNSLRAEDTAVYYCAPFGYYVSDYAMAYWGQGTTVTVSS VL: EIVLTQSPATLSLSPGERATLSCRAGESVDIFGVGFLHWYQQKPGQAPRLLIYRGSNRATGIPARFSGSGSGTDFTLTISSLEPEDFAVYYCGQTYEDPYTFGQGTKLEIK
Response: 11.5
